Some binders, each annotated with its measured ECM AVRG (average KD, hLTBP1 and hLTBP3 complexes).
biological target: Matrix-associated proTGFβ1 complexes (hLTBP1-proTGFβ1 and hLTBP3-proTGFβ1); experiment: BLI (Octet)
Your answer should be a plain number; it is taken to be in nM.

- BINDER: "Ab28 (antibody, V domains shown) VH: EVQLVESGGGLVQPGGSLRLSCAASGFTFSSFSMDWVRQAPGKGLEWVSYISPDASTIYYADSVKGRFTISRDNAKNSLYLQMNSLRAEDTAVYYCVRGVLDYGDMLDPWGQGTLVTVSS VL: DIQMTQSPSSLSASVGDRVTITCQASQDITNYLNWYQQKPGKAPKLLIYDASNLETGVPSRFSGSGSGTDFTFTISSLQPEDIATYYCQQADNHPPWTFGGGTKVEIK"
  RESULT VALUE: 0.328
- BINDER: "Ab32 (antibody, IgG4, V domains shown) VH: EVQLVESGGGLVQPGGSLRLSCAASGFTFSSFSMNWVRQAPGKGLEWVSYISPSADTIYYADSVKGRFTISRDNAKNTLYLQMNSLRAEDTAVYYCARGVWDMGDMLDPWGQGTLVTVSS VL: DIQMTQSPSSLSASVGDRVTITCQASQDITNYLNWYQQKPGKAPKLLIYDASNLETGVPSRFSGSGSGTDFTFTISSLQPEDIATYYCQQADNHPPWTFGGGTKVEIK"
  RESULT VALUE: 0.242

Requested read-out: ECM AVRG (average KD, hLTBP1 and hLTBP3 complexes). Entry: Ab33 (antibody, IgG4, V domains shown) VH: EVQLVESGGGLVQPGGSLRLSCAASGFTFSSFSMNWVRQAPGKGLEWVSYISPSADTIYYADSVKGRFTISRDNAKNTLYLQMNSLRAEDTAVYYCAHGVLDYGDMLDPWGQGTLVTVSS VL: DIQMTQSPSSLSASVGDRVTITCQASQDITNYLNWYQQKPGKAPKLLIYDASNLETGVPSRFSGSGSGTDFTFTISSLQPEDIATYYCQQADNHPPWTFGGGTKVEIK 0.145

And the next one, Ab25 (antibody, V domains shown) VH: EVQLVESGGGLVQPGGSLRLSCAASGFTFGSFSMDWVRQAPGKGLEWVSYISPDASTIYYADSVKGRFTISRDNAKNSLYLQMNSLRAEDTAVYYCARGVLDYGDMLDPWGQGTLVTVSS VL: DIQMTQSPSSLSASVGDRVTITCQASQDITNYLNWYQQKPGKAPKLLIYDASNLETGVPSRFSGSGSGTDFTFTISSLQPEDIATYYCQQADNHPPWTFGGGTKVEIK ? 0.184

And the next one, Ab27 (antibody, V domains shown) VH: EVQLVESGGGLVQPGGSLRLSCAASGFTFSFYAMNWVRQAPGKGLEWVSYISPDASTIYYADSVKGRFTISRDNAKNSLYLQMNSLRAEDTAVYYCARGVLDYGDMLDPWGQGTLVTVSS VL: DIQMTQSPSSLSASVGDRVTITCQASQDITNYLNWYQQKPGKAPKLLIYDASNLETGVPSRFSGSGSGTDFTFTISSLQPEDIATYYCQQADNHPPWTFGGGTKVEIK ? 0.208

And the next one, Ab23 (antibody, V domains shown) VH: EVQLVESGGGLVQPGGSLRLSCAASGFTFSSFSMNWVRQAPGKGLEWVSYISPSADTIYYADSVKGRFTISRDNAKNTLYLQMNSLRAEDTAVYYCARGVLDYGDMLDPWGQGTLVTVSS VL: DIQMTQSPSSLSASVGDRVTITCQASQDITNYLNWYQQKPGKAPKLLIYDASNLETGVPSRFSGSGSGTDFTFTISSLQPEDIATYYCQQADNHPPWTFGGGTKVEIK ? 0.443

And the next one, Ab26 (antibody, IgG4, V domains shown) VH: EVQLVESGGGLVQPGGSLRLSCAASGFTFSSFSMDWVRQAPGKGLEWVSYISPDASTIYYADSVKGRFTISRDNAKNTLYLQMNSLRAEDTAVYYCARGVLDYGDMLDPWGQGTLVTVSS VL: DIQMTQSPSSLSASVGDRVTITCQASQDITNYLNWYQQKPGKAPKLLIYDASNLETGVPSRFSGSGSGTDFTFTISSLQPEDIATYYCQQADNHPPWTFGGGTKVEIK ? 0.197
